// reported pEC50 for each item listed
- target_of_assay: GPR40 of human origin (Homo sapiens, UniProt O14842)
- Sequence (O14842 whole entry): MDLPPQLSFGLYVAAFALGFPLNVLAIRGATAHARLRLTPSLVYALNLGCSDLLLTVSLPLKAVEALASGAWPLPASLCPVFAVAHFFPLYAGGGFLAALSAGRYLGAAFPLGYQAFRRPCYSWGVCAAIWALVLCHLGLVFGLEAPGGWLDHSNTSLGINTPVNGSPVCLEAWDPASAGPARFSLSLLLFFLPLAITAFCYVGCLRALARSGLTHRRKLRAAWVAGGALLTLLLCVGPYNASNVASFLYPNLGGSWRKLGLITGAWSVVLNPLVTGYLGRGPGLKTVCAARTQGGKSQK
- method: Agonist action on GPR40 of human origin (intracellular Ca2+ change)
- conditions: CHO cell strain stably expressing GPR40 of human origin; change in Ca2+ concentration, fluorescent calcium indicator
pEC50: −log10 of the molar value.
assay_endpoint: pEC50

# compound, target_of_assay, experimental_result
data = [
    ("[O-][s+]1nc(O)cc1-c1ccc(O[C@@H]2CCc3c(-c4ccc(OCC5CC5)nc4)cccc32)cc1 (stereo partly drawn) [Example 78]", "GPR40 of human origin (Homo sapiens, UniProt O14842)", "> 6.52"),
    ("CCOc1ncccc1-c1cccc2c1CC[C@H]2Oc1ccc(-c2cc(O)n[s+]2[O-])cc1 (stereo partly drawn) [Example 19]", "GPR40 of human origin (Homo sapiens, UniProt O14842)", "> 6.52"),
    ("CC(C)c1ccccc1-c1cccc2c1CC[C@H]2Oc1ccc(-c2cc(O)n[s+]2[O-])cc1 (stereo partly drawn) [Example 34]", "GPR40 of human origin (Homo sapiens, UniProt O14842)", "5.52 to 6.52"),
    ("CCOCCOc1ccc(Oc2cccc3c2CC[C@H]3Oc2ccc(-c3cc(O)n[s+]3[O-])cc2)cn1 (stereo partly drawn) [Example 98]", "GPR40 of human origin (Homo sapiens, UniProt O14842)", "> 6.52"),
    ("COc1cc(Oc2cccc3c2CC[C@H]3Oc2ccc(-c3cc(O)n[s+]3[O-])cc2)ccn1 (stereo partly drawn) [Example 114]", "GPR40 of human origin (Homo sapiens, UniProt O14842)", "> 6.52"),
    ("[O-][s+]1nc(O)cc1-c1ccc(O[C@@H]2CCc3c(-c4ccc(F)cc4OCc4ccccc4)cccc32)cc1 (stereo partly drawn) [Example 61]", "GPR40 of human origin (Homo sapiens, UniProt O14842)", "5.52 to 6.52"),
    ("[O-][s+]1nc(O)cc1-c1ccc(O[C@@H]2CCc3c(Br)cccc32)cc1 (single isomer, unassigned) [Example 3]", "GPR40 of human origin (Homo sapiens, UniProt O14842)", "> 6.52"),
    ("Cc1ccc(-c2cccc3c2CC[C@H]3Oc2ccc(-c3cc(O)n[s+]3[O-])cc2)cn1 (stereo partly drawn) [Example 71]", "GPR40 of human origin (Homo sapiens, UniProt O14842)", "> 6.52"),
    ("Cc1ccc(Oc2cccc3c2CC[C@H]3Oc2ccc(-c3cc(O)n[s+]3[O-])cc2)nc1 (stereo partly drawn) [Example 134]", "GPR40 of human origin (Homo sapiens, UniProt O14842)", "> 6.52"),
    ("Cc1cc(F)ccc1-c1cccc2c1CC[C@H]2Oc1ccc(-c2cc(O)n[s+]2[O-])cc1 (stereo partly drawn) [Example 39]", "GPR40 of human origin (Homo sapiens, UniProt O14842)", "> 6.52"),
    ("CCOc1ccc(-c2cccc3c2CC[C@H]3Oc2ccc(-c3cc(O)n[s+]3[O-])cc2)cc1F (stereo partly drawn) [Example 44]", "GPR40 of human origin (Homo sapiens, UniProt O14842)", "5.52 to 6.52"),
    ("CC(C)Oc1ccc(-c2cccc3c2CC[C@H]3Oc2ccc(-c3cc(O)n[s+]3[O-])cc2)cc1 (stereo partly drawn) [Example 31]", "GPR40 of human origin (Homo sapiens, UniProt O14842)", "5.52 to 6.52"),
    ("[O-][s+]1nc(O)cc1-c1ccc(OCC2=CC3(CCCCC3)CCC2)cc1 (stereo not drawn) [Example 120]", "GPR40 of human origin (Homo sapiens, UniProt O14842)", "5.52 to 6.52"),
    ("[O-][s+]1nc(O)cc1-c1ccc(O[C@@H]2CCc3c(-c4ccc(Cl)cc4F)cccc32)cc1 (stereo partly drawn) [Example 16]", "GPR40 of human origin (Homo sapiens, UniProt O14842)", "5.52 to 6.52"),
    ("CS(=O)(=O)c1ccccc1-c1cccc2c1CC[C@H]2Oc1ccc(-c2cc(O)n[s+]2[O-])cc1 (stereo partly drawn) [Example 70]", "GPR40 of human origin (Homo sapiens, UniProt O14842)", "> 6.52"),
]

Value source: patent US8629102B2
